- Test system: MCF10A
- procedure.text: normalised growth rate inhibition (GR value) relative to DMSO control (GR (1 = untreated growth, 0 = cytostasis, <0 = cytotoxic)); higher = less growth inhibition
- recorded.conditions: 3.33 µM; 72 h
// values below are reported normalised growth rate inhibition
# print the numeric value only

Nc1cc(C(F)(F)F)c(-c2cc(N3CCOCC3)nc(N3CCOCC3)n2)cn1 [buparlisib]	0.0221
Cc1nc(NC(=O)N2CCC[C@H]2C(N)=O)sc1-c1ccnc(C(C)(C)C(F)(F)F)c1	0.77
Cn1c(=O)n(-c2ccc(C(C)(C)C#N)cc2)c2c3cc(-c4cnc5ccccc5c4)ccc3ncc21 [NVP-BEZ235]	0.168

Now take the following compound into account.
Give recorded normalised growth rate inhibition. COc1cc(OC)cc(-c2ccc3ncc4ccc(=O)n(-c5ccc(N6CCNCC6)c(C(F)(F)F)c5)c4c3c2)c1 [JW-7-24-1]
0.84

src = the supplement of paper PMC5662764
